# reported resistance of clone compared with wt cells; entries follow
- Tested on: Daudi-RR1
- procedure_summary: DNA fragmentation (PI) apoptosis assay, Daudi-RR1
- condition_notes: Daudi-RR1; 18 h
- Description: Percentage of apoptotic cells was determined by evaluation of propidium iodide (PI) stained preparations of cells using an EpicXL flow-cytometer. Cellular debris was excluded from analysis by raising the forward scatter threshold, and DNA content of the intact nuclei was recorded on a logarithmic scale (Nicoletti, I. et al., J. Immunol. Methods, 139:271-9 (1991)). Percent apoptosis is represented as percentage of hypodiploid cells accumulated at sub-G0 phase of cell cycle. […]
reported_property: resistance of clone compared with wt cells (folds)

{"compound": "N.N.[Cl][Pt][Cl] [CDDP]", "value_observed": 1.95}
{"compound": "CC[C@]1(O)C[C@H]2CN(CCc3c([nH]c4ccccc34)[C@@](C(=O)OC)(c3cc4c(cc3OC)N(C=O)[C@H]3[C@@](O)(C(=O)OC)[C@H](OC(C)=O)[C@]5(CC)C=CCN6CC[C@]43[C@@H]65)C2)C1 [vincristine]", "value_observed": 1.66}
{"compound": "COc1cccc2c1C(=O)c1c(O)c3c(c(O)c1C2=O)C[C@@](O)(C(=O)CO)C[C@@H]3O[C@H]1C[C@H](N)[C@H](O)[C@H](C)O1 [ADR]", "value_observed": 1.94}
{"compound": "COc1cc([C@@H]2c3cc4c(cc3[C@@H](O[C@@H]3O[C@@H]5CO[C@@H](C)O[C@H]5[C@H](O)[C@H]3O)[C@H]3COC(=O)[C@H]23)OCO4)cc(OC)c1O [VP-16]", "value_observed": 2.97}
{"compound": "CC(=O)O[C@H]1C(=O)[C@@]2(C)[C@H]([C@H](OC(=O)c3ccccc3)[C@]3(O)C[C@H](OC(=O)[C@H](O)[C@@H](NC(=O)c4ccccc4)c4ccccc4)C(C)=C1C3(C)C)[C@]1(OC(C)=O)CO[C@@H]1C[C@@H]2O [paclitaxel]", "value_observed": 1.63}

====

- Tested on: Ramos-RR1
- procedure_summary: DNA fragmentation (PI) apoptosis assay, Ramos-RR1
- condition_notes: Ramos-RR1; DHMEQ 20 μg/ml 2 h, then highest drug concentration 18 h
reported_property: apoptosis, drug after DHMEQ pre-treatment (%)

{"smiles_entry": "CC[C@]1(O)C[C@H]2CN(CCc3c([nH]c4ccccc34)[C@@](C(=O)OC)(c3cc4c(cc3OC)N(C=O)[C@H]3[C@@](O)(C(=O)OC)[C@H](OC(C)=O)[C@]5(CC)C=CCN6CC[C@]43[C@@H]65)C2)C1", "measured_target": "Ramos-RR1", "value_observed": 53.5}
{"smiles_entry": "N.N.[Cl][Pt][Cl]", "measured_target": "Ramos-RR1", "value_observed": 61.2}
{"smiles_entry": "COc1cccc2c1C(=O)c1c(O)c3c(c(O)c1C2=O)C[C@@](O)(C(=O)CO)C[C@@H]3O[C@H]1C[C@H](N)[C@H](O)[C@H](C)O1", "measured_target": "Ramos-RR1", "value_observed": 32.4}
{"smiles_entry": "CC(=O)O[C@H]1C(=O)[C@@]2(C)[C@H]([C@H](OC(=O)c3ccccc3)[C@]3(O)C[C@H](OC(=O)[C@H](O)[C@@H](NC(=O)c4ccccc4)c4ccccc4)C(C)=C1C3(C)C)[C@]1(OC(C)=O)CO[C@@H]1C[C@@H]2O", "measured_target": "Ramos-RR1", "value_observed": 46.5}
{"smiles_entry": "COc1cc([C@@H]2c3cc4c(cc3[C@@H](O[C@@H]3O[C@@H]5CO[C@@H](C)O[C@H]5[C@H](O)[C@H]3O)[C@H]3COC(=O)[C@H]23)OCO4)cc(OC)c1O", "measured_target": "Ramos-RR1", "value_observed": 53.0}

====

- Tested on: Ramos-RR1
- procedure_summary: DNA fragmentation (PI) apoptosis assay, Ramos-RR1
- condition_notes: Ramos-RR1; 18 h
reported_property: resistance of clone compared with wt cells, value in parentheses (%)

{"compound": "CC(=O)O[C@H]1C(=O)[C@@]2(C)[C@H]([C@H](OC(=O)c3ccccc3)[C@]3(O)C[C@H](OC(=O)[C@H](O)[C@@H](NC(=O)c4ccccc4)c4ccccc4)C(C)=C1C3(C)C)[C@]1(OC(C)=O)CO[C@@H]1C[C@@H]2O [paclitaxel]", "unit": "%", "value_observed": 136}
{"compound": "COc1cc([C@@H]2c3cc4c(cc3[C@@H](O[C@@H]3O[C@@H]5CO[C@@H](C)O[C@H]5[C@H](O)[C@H]3O)[C@H]3COC(=O)[C@H]23)OCO4)cc(OC)c1O [VP-16]", "unit": "%", "value_observed": 145}
{"compound": "CC[C@]1(O)C[C@H]2CN(CCc3c([nH]c4ccccc34)[C@@](C(=O)OC)(c3cc4c(cc3OC)N(C=O)[C@H]3[C@@](O)(C(=O)OC)[C@H](OC(C)=O)[C@]5(CC)C=CCN6CC[C@]43[C@@H]65)C2)C1 [vincristine]", "unit": "%", "value_observed": 130}
{"compound": "N.N.[Cl][Pt][Cl] [CDDP]", "unit": "%", "value_observed": 120}
{"compound": "COc1cccc2c1C(=O)c1c(O)c3c(c(O)c1C2=O)C[C@@](O)(C(=O)CO)C[C@@H]3O[C@H]1C[C@H](N)[C@H](O)[C@H](C)O1 [ADR]", "unit": "%", "value_observed": 158}
